Cited source: paper PMC5320518

PROTOCOL NOTES: Stability in simulated gastric fluid (SGF)
Assay type: in vitro ADME
EXPERIMENTAL CONDITIONS: SGF pH 1.21 with pepsin, 2 μM, 37 °C, 24 h incubation
OBSERVABLE: stability in SGF (in words)

MOLECULE	OBSERVABLE	RECORDED VALUE
C[C@H](CCC(=O)N(C)CC(=O)OC1CCN(C(=O)[C@H](Cc2ccc(F)cc2)NC(=O)c2cc3cc(Cl)ncc3[nH]2)CC1)[C@H]1CC[C@H]2[C@@H]3[C@H](O)C[C@@H]4C[C@H](O)CC[C@]4(C)[C@H]3C[C@H](O)[C@]12C [Conjugate 2]	stability in SGF (in words)	stable
CC(CCC(=O)NC(Cc1ccccc1)C(=O)NC(CCCCN)C(=O)OC1CCN(C(=O)C(Cc2ccc(F)cc2)NC(=O)c2cc3cc(Cl)ncc3[nH]2)CC1)C1CCC2C3C(O)CC4CC(O)CCC4(C)C3CC(O)C12C (centres unmarked) [Conjugate 8]	stability in SGF (in words)	relatively stable
C[C@H](NC(=O)CC[C@@H](C)[C@H]1CC[C@H]2[C@@H]3[C@H](O)C[C@@H]4C[C@H](O)CC[C@]4(C)[C@H]3C[C@H](O)[C@]12C)C(=O)OC1CCN(C(=O)[C@H](Cc2ccc(F)cc2)NC(=O)c2cc3cc(Cl)ncc3[nH]2)CC1 [Conjugate 3]	stability in SGF (in words)	relatively stable
CC(C)[C@H](NC(=O)CC[C@@H](C)[C@H]1CC[C@H]2[C@@H]3[C@H](O)C[C@@H]4C[C@H](O)CC[C@]4(C)[C@H]3C[C@H](O)[C@]12C)C(=O)OC1CCN(C(=O)[C@H](Cc2ccc(F)cc2)NC(=O)c2cc3cc(Cl)ncc3[nH]2)CC1 [Conjugate 4]	stability in SGF (in words)	relatively stable
C[C@H](CCC(=O)N[C@@H](CC(=O)O)C(=O)OC1CCN(C(=O)[C@H](Cc2ccc(F)cc2)NC(=O)c2cc3cc(Cl)ncc3[nH]2)CC1)[C@H]1CC[C@H]2[C@@H]3[C@H](O)C[C@@H]4C[C@H](O)CC[C@]4(C)[C@H]3C[C@H](O)[C@]12C [Conjugate 6]	stability in SGF (in words)	stable

====

System: isolated rat hepatocytes
PROTOCOL NOTES: Glycogenolysis inhibition in isolated rat hepatocytes
Format: cell-based
EXPERIMENTAL CONDITIONS: Hepatocyte, 1 h; isolated rat hepatocytes, 60-min incubation with 0.3 nM glucagon; mean ± S.D. of three; NI means no inhibition; read-out: IC50 (glycogenolysis inhibition, rat hepatocytes)
Excerpt: To evaluate the effects of all compounds in cells, the glycogenolysis assays were established in both rat and human liver cells based on the published method. […] The inhibitory activities of the derivatives of PSN-357 (e.g. 25–28) were also explored. […] The inhibition of hepatic glycogenolysis was monitored by the measurement of liver glycogen, which was done quantitatively by the anthrone reagent (Sigma) colorimetric method based on the published method. […]
pIC50: −log10 of the molar value.

COMPOUND	pIC50
CC(C)(C)OC(=O)N[C@@H](Cc1ccccc1)C(=O)N[C@@H](CCCCNC(=O)OCC1c2ccccc2-c2ccccc21)C(=O)OC1CCN(C(=O)[C@H](Cc2ccc(F)cc2)NC(=O)c2cc3cc(Cl)ncc3[nH]2)CC1	4.42
CC(C)[C@H](NC(=O)OC(C)(C)C)C(=O)N[C@@H](C)C(=O)OC1CCN(C(=O)[C@H](Cc2ccc(F)cc2)NC(=O)c2cc3cc(Cl)ncc3[nH]2)CC1	4.96
O=C(N[C@@H](Cc1ccc(F)cc1)C(=O)N1CCC(O)CC1)c1cc2cc(Cl)ncc2[nH]1	4.97
C[C@H](N)C(=O)OC1CCN(C(=O)[C@H](Cc2ccc(F)cc2)NC(=O)c2cc3cc(Cl)ncc3[nH]2)CC1	5.01
CC(C)[C@H](N)C(=O)OC1CCN(C(=O)[C@H](Cc2ccc(F)cc2)NC(=O)c2cc3cc(Cl)ncc3[nH]2)CC1	4.83
O=C(CCc1ccccc1/N=N/c1ccc(C(=O)O)cc1)OC1CCN(C(=O)[C@H](Cc2ccc(F)cc2)NC(=O)c2cc3cc(Cl)ncc3[nH]2)CC1	4.46
CC(C)(C)OC(=O)c1ccc(/N=N/c2ccccc2CCC(=O)OC2CCN(C(=O)[C@H](Cc3ccc(F)cc3)NC(=O)c3cc4cc(Cl)ncc4[nH]3)CC2)cc1	4.01
CC(C)(C)OC(=O)C[C@H](NC(=O)OC(C)(C)C)C(=O)OC1CCN(C(=O)[C@H](Cc2ccc(F)cc2)NC(=O)c2cc3cc(Cl)ncc3[nH]2)CC1	4.99
CC(CCC(=O)NC(Cc1ccccc1)C(=O)NC(CCCCNC(=O)OCC1c2ccccc2-c2ccccc21)C(=O)OC1CCN(C(=O)C(Cc2ccc(F)cc2)NC(=O)c2cc3cc(Cl)ncc3[nH]2)CC1)C1CCC2C3C(O)CC4CC(O)CCC4(C)C3CC(O)C12C (stereo not shown)	5.25
N[C@@H](CO)C(=O)OC1CCN(C(=O)[C@H](Cc2ccc(F)cc2)NC(=O)c2cc3cc(Cl)ncc3[nH]2)CC1	4.87
